System: Rhizoctonia solani
EXPERIMENT_SUMMARY: Fungistatic activity against Rhizoctonia solani assessed as mycelial growth inhibition at 200 ug/ml after 4 to 8 days relative to control
Assay type: functional
PARTICULARS: read-out: GI
Overview of reported inhibition of growth at 200 µg/mL across a group of molecules:

SMILES_REPRESENTATION	inhibition of growth at 200 µg/mL
Oc1ccc(C(=S)n2nnc3cc(Cl)ccc32)c(O)c1	81%
Oc1ccc(C(=S)NNC(=S)Nc2ccc(F)cc2)c(O)c1	0%
Oc1ccc(C(=S)NNC(=S)Nc2cccc(Cl)c2)c(O)c1	0%
CC(C)(C)c1nnc(NC(=S)c2ccc(O)cc2O)s1	0%
Oc1ccc(C(=S)Nc2ccccc2-c2ccccc2)c(O)c1	61%
Oc1ccc(C(=S)Nc2ccc(OCc3ccccc3)cc2)c(O)c1	41%
CC(C)(C)c1cc(NC(=S)c2ccc(O)cc2O)no1	41%
Oc1ccc(C(=S)n2c(Cl)nc3ccccc32)c(O)c1	81%
Oc1ccc(C(=S)Nc2cc(C(F)(F)F)ccc2N2CCOCC2)c(O)c1	0%
Oc1ccc(C(=S)Nc2ccc(Oc3ccccc3)cc2)c(O)c1	21%
Oc1ccc(C(=S)NC(=S)c2cccnc2)c(O)c1	61%
O=C(Nc1ccccc1)c1ccccc1NC(=S)c1ccc(O)cc1O	61%
Oc1ccc(C(=S)NN=C2c3ccccc3-c3ccccc32)c(O)c1	0%
Oc1ccc(C(=S)Nc2ccccc2Sc2ccc(Cl)cc2)c(O)c1	21%

Entry source: ChEMBL document CHEMBL3046604
